These data points were gathered from ChEMBL document CHEMBL1125831.

Test system: Human immunodeficiency virus 1
Assay: In vitro antiviral activity in Phytohemagglutininin stimulated human PBM cells infected with HIV-1 (strain LAV-1)
Type: functional, organism-based
Conditions: Human immunodeficiency virus 1, PBMC
Could you please report measured log10 EC50 for the items listed next?
// stored as log10 of EC50 expressed in µM

Request: Which log10 EC50 value is on record for CC(C)Nc1cc(-c2ccccc2)nc2ccccc12 ?
Response: 2.00

Request: Bench note: what log10 EC50 did CN1CCN(c2cc(-c3cccs3)nc3ccccc23)CC1 show?
Response: 0.96

Request: # log10 EC50 lookup, item Nc1cc(-c2ccccc2)nc2ccccc12
Response: 1.41

Request: Report log10 EC50 for c1cncc(-c2cc(N3CCCCC3)c3ccccc3n2)c1 please.
Response: 1.30

Request: Bench note: what log10 EC50 did COc1ccc(-c2cc(NCCN(C)C)c3ccccc3n2)cc1 show?
Response: 1.02

Request: Record request: log10 EC50 value, item CN(C)CCNc1cc(-c2ccc(F)cc2)nc2ccccc12
Response: 1.12

Request: // log10 EC50 lookup, key: CN(C)CCNc1cc(-c2ccccn2)nc2ccccc12
Response: 0.13

Request: What value of log10 EC50 has been recorded for this entry: Cc1ccc(-c2cc(NCCN(C)C)c3ccccc3n2)cc1
Response: 0.65

Request: Which measured log10 EC50 value corresponds to c1ccc(-c2cc(N3CCSCC3)c3ccccc3n2)nc1 ?
Response: 0.45

Request: I would be grateful if you could share the reported log10 EC50 for CCN(CCN(C)C)c1cc(-c2cccnc2)nc2ccccc12 .
Response: 1.38

Request: Please give the measured log10 EC50 for this molecule: CC(C)CNc1cc(-c2ccccc2)nc2ccccc12
Response: 1.70

Request: Give the measured log10 EC50 of CCN(CCN(C)C)c1cc(-c2ccccc2)nc2ccccc12 .
Response: 1.54

Request: Record request: log10 EC50 value, item CN(C)CCNc1cc(-c2cccs2)nc2ccccc12
Response: -0.24

Request: Return reported log10 EC50; argument: CCN(CCN(C)C)c1cc(-c2ccncc2)nc2ccccc12
Response: 2.00

Request: May I ask what log10 EC50 has been recorded for CN1CCN(c2cc(-c3ccccn3)nc3ccccc23)CC1 ?
Response: 0.74

Request: Report log10 EC50 for c1ccc(-c2cc(N3CCOCC3)c3ccccc3n2)nc1 please.
Response: 1.27

Request: Quick one: log10 EC50 of CN(C)CCNc1cc(-c2ccccc2)nc2ccccc12 ?
Response: 1.00

Request: Name the recorded log10 EC50 for c1cncc(-c2cc(N3CCCC3)c3ccccc3n2)c1 .
Response: 1.53

Request: Recorded log10 EC50 for CN(C)CCNc1cc(-c2ccc(Br)cc2)nc2ccccc12 , please?
Response: 1.65

Request: Could you tell me which log10 EC50 is on file for Nc1cc(-c2ccccn2)nc2ccccc12 ?
Response: 0.93

Request: Form field: reported log10 EC50 of CN1CCN(c2cc(-c3ccccc3)nc3ccccc23)CC1
Response: 1.12

Request: I'd like to know its log10 EC50. The molecule in question is CC1CCCN(c2cc(-c3ccccc3)nc3ccccc23)C1 (stereo not drawn)
Response: 1.22

Request: Given CC1CCCN(c2cc(-c3ccccn3)nc3ccccc23)C1 (stereo not drawn) , state its recorded log10 EC50.
Response: 0.69

Request: Which log10 EC50 is listed for CC(C)(C)Nc1cc(-c2ccccc2)nc2ccccc12 ?
Response: 2.00

Request: Would you kindly share the measured log10 EC50 for CN1CCN(c2cc(-c3ccco3)nc3ccccc23)CC1 ?
Response: 1.20

Request: Would you mind telling me what log10 EC50 value was observed for CCN(CCN(C)C)c1cc(-c2cccs2)nc2ccccc12 ?
Response: 1.51

Request: Entry CCN(CCN(C)C)c1cc(-c2ccccn2)nc2ccccc12 has what log10 EC50?
Response: 1.12

Request: Please report the recorded log10 EC50 for CC1CCCCN1c1cc(-c2ccccc2)nc2ccccc12 (stereo not drawn) .
Response: 1.42

Request: GET /values?readout=log10 EC50&item= CN(C)CCNc1cc(-c2ccc(Cl)cc2)nc2ccccc12
Response: 2.00

Request: Please report the recorded log10 EC50 for CN1CCN(c2cc(-c3ccncc3)nc3ccccc23)CC1 .
Response: 1.83

Request: Entry CN(C)CCNc1cc(-c2ccncc2)nc2ccccc12 has what log10 EC50?
Response: 1.57

Request: Data request, read-out log10 EC50, for CN1CCN(c2cc(-c3cccnc3)nc3ccccc23)CC1
Response: 0.00

Request: Item under review: Nc1cc(-c2cccnc2)nc2ccccc12 . Reported log10 EC50?
Response: 0.00

Request: What value of measured log10 EC50 is listed for CC1CCCCN1c1cc(-c2ccccn2)nc2ccccc12 (stereo not drawn) ?
Response: 0.63

Request: What measured log10 EC50 goes with CN(C)CCNc1cc(-c2ccco2)nc2ccccc12 ?
Response: -0.04

Request: Which value of log10 EC50 has been reported for CC1CCN(c2cc(-c3ccccn3)nc3ccccc23)CC1 in the records?
Response: 0.61

Request: Which value of log10 EC50 has been reported for CN(C)CCNc1cc(-c2cccnc2)nc2ccccc12 in the records?
Response: 0.18

Request: What value of log10 EC50 has been recorded for this entry: Nc1cc(-c2cccs2)nc2ccccc12
Response: 1.54
